Below: a set of entries, each annotated with reported melting point.
Write down the numeric answer in °C and omit the unit.

Exercise: Any idea what melting point was measured for Cc1nc2ccc(-c3nc(NCC(c4ccccc4)c4ccccc4)c4ccccc4n3)cn2c1C ?
Solution: 232

***
Exercise: Please look up its melting point: O=C1Cc2cc(-c3nc(NCC(c4ccccc4)c4ccccc4)c4ccccc4n3)ccc2N1
Solution: 244

Exercise: Reported melting point for c1ccc(C(CNc2nc(-c3cnc(N4CCCC4)nc3)nc3ccccc23)c2ccccc2)cc1 : what is it?
Solution: 208

Exercise: Any idea what its melting point is? The molecule is CC(C)(C)OC(=O)n1cc(-c2nc(NCC(c3ccccc3)c3ccccc3)c3ccccc3n2)c2cccnc21
Solution: 105

###

Molecular target: dopamine transporter (DAT) (Rattus norvegicus, UniProt P23977)
Sequence (P23977 whole entry): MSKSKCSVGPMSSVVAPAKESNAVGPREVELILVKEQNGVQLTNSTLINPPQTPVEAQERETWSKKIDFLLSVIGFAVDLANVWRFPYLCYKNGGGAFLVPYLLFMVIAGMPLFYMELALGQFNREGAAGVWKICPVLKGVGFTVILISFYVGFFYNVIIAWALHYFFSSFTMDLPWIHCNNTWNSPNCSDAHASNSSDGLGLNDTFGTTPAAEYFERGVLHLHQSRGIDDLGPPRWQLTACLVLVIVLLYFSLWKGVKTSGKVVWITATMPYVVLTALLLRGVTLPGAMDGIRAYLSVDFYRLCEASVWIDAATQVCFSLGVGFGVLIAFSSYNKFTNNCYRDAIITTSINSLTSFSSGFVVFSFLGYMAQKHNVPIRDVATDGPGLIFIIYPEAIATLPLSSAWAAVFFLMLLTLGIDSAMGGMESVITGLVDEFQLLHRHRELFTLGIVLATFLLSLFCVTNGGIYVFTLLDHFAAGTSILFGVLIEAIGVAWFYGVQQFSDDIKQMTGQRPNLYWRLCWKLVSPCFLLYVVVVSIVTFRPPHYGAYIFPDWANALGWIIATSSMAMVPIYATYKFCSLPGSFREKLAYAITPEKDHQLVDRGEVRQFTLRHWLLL
Test: Dopamine reuptake ([^3H]dopamine uptake) inhibition in rat brain synaptosomes
Details: IC50 for DAT Uptake Inhibition, rounded value as listed in Table 10
# Lookup of reported pIC50 keyed by entry
By convention, pIC50 is the negative base-10 log of a molar concentration.

Exercise: If you can, please state the reported pIC50 value of c1ccc(C(CNc2nc(-c3cnc4nccn4c3)nc3ccccc23)c2ccccc2)cc1 [compound 89] .
Solution: 8.70

Exercise: For the compound shown here, CN(C)c1ccc(-c2nc(NCC(c3ccccc3)c3ccccc3)c3ccccc3n2)cn1 [compound 69] , give the reported pIC50.
Solution: 8.15

Exercise: Which value of pIC50 has been reported for Cc1cc2nccn2cc1-c1nc(NCC(c2ccccc2)c2ccc[nH]2)c2ccccc2n1 (stereo not shown) [compound 140] in the records?
Solution: 9.00

Exercise: Looking for the measured pIC50 of Cc1cc2nccn2cc1-c1nc(NCC(c2ccccc2)c2ccccc2)c2ccccc2n1 [compound 118] , can you help?
Solution: 9.30

Exercise: Name the reported pIC50 value associated with the compound c1ccc(C(CNc2nc(-c3ccc4nccn4c3)nc3ccccc23)c2ccc[nH]2)cc1 (stereo not shown) [compound 117]
Solution: 8.22

Next:
Exercise: Recorded pIC50 for c1ccc(C(CNc2nc(-c3cnc4nccn4c3)nc3ccccc23)C2CCCCC2)cc1 (stereo not shown) [compound 102] , please?
Solution: 8.22

Exercise: Quick one: pIC50 of Cc1cc2nccn2cc1-c1nc(NCC(O)(c2ccccc2)c2ccccc2)c2ccccc2n1 [compound 152] ?
Solution: 8.70

###

Target: serotonin transporter (SERT) (Rattus norvegicus, UniProt P31652)
Construct: Freshly removed whole brain minus cerebellum and caudate was homogenized; from tissue; host or cells: rat whole brain minus cerebellum and caudate, synaptosomes
Sequence (P31652 whole entry): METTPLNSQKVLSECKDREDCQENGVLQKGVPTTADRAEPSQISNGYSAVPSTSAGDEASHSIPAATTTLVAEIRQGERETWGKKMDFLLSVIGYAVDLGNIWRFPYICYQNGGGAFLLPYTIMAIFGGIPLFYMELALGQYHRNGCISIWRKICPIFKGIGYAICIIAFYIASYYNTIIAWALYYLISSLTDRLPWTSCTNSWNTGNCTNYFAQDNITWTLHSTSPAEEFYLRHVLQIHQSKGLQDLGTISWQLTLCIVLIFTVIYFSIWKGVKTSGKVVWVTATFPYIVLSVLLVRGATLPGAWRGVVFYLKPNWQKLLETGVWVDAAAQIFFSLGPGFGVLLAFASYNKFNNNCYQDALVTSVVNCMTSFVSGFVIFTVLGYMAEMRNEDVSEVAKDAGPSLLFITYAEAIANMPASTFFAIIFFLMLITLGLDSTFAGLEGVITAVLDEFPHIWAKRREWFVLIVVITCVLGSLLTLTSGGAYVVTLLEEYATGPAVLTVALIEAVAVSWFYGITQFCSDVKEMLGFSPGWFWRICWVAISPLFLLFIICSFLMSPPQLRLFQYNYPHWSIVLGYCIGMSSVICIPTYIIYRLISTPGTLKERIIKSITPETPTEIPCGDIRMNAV
Experiment: Serotonin reuptake ([^3H]serotonin uptake) inhibition in rat brain synaptosomes
Type: biochemical
Conditions: mean ± S.D., n = 3; read-out: SERT Uptake Emax
Experimental Endpoint: Emax

Illustrative cases are given below, each with its answer.
Exercise: Checklist item: Emax tested on serotonin transporter (SERT) (Rattus norvegicus, UniProt P31652), entry c1ccc(C(CNc2nc(-c3cnc4nccn4c3)nc3ccccc23)c2ccccc2)cc1 , value?
Solution: 51%

Exercise: Test system serotonin transporter (SERT) (Rattus norvegicus, UniProt P31652); read-out Emax; what value for c1ccc(C(CNc2nc(-c3ccc4nccn4c3)nc3ccccc23)c2cccnc2)cc1 (centres unmarked) ?
Solution: 59%

Exercise: Request - read-out Emax | tested on serotonin transporter (SERT) (Rattus norvegicus, UniProt P31652) | molecule OC(CNc1nc(-c2ccc3[nH]ccc3c2)nc2ccccc12)(c1ccccc1)c1ccccc1
Solution: 57%

Exercise: Return Emax measured with serotonin transporter (SERT) (Rattus norvegicus, UniProt P31652) given this molecule: CNc1ncc(-c2nc(NCC(c3ccccc3)c3ccccc3)c3ccccc3n2)cn1
Solution: 60%

Exercise: Return Emax measured with serotonin transporter (SERT) (Rattus norvegicus, UniProt P31652) given this molecule: c1ccc(C(CNc2nc(-c3ccc4nccn4c3)nc3ccccc23)c2ccccc2)cc1
Solution: 52%

---
Exercise: Reported Emax for serotonin transporter (SERT) (Rattus norvegicus, UniProt P31652), given c1ccc(C(CNc2nc(-c3ccc4nccn4c3)nc3ccccc23)C2CCCCC2)cc1 (centres unmarked) ?
Solution: 59%

Exercise: So what Emax did c1ccc(C(CNc2nc(-c3cnc4nccn4c3)nc3ccccc23)C2CCCCC2)cc1 (centres unmarked) get with serotonin transporter (SERT) (Rattus norvegicus, UniProt P31652)?
Solution: 54%

Exercise: API: value(readout=Emax, system=serotonin transporter (SERT) (Rattus norvegicus, UniProt P31652)) for record CSc1ncc(-c2nc(NCC(c3ccccc3)c3ccccc3)c3ccccc3n2)cn1
Solution: 52%

Exercise: Lab note: need Emax for Cc1cc2nccn2cc1-c1nc(NCC(c2ccccc2)c2ccccc2)c2ccccc2n1 on serotonin transporter (SERT) (Rattus norvegicus, UniProt P31652), anyone have it?
Solution: 58%

Exercise: Entry Cc1cc2nccn2cc1-c1nc(NCC(c2ccccc2)c2ccc[nH]2)c2ccccc2n1 (centres unmarked) , system serotonin transporter (SERT) (Rattus norvegicus, UniProt P31652): what Emax was measured?
Solution: 54%
